- system.under.test: Adenosine receptor A2a (Homo sapiens)
- Sequence (P29274 whole entry): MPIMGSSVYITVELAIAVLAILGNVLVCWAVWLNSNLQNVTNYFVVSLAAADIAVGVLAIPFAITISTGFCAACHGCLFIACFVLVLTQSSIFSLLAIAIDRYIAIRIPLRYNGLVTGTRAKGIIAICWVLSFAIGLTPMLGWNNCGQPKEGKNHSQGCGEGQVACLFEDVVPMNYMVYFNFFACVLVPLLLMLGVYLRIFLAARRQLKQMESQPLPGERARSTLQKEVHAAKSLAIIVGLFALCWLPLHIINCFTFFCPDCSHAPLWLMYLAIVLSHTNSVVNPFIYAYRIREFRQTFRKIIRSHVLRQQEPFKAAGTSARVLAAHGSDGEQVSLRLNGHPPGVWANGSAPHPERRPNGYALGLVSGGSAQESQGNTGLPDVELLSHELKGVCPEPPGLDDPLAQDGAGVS
- method.summary: Luciferase Reporter Assay
assay.readout: pIC50
Remember the convention: pIC50 equals -log10 of concentration in molar.

Q) Form field - read-out: pIC50; system: Adenosine receptor A2a (Homo sapiens); submitted item: C[C@@](C(=O)O)(c1ccccc1)n1ncc2c1nc(N)n1nc(-c3ccco3)nc21 [US11472811, Example Intermediate-Ia]
A) 6.71
